test system: Fibroblast; test: Multiplex assay against human fibroblast; format: toxicity, cell-based; conditions: 48 h, 10 µM, compound concentration 10 uM, replicate 2
Threshold check on Population Hoechst High Intensity Objects (%): strictly below 4% is condition met; on or above 4% is condition not met.

Would you please look over these solved cases?
1. O=c1nc2[nH]c3ccccc3nc-2c(=O)[nH]1 ... condition met
2. CN(C)C/C=C/C(=O)Nc1ccc(C(=O)N2CCCC(Nc3ncc(Cl)c(-c4c[nH]c5ccccc45)n3)C2)cc1 (stereo unspecified) ... condition not met
3. Cc1cc(NC(=O)NCCN2CCC(O)(Cc3ccccc3)CC2)c2ccccc2n1 ... condition met
4. CN1CCN2c3ccccc3Cc3ccccc3C2C1.Cl (stereo unspecified) [MIANSERIN HYDROCHLORIDE] ... condition met
5. COCCn1c(C)c(C)s/c1=N\C(=O)C1C(C)(C)C1(C)C ... condition not met
6. CCCCC[C@H](O)/C=C/[C@H]1[C@H](O)CC(=O)[C@@H]1CCCCCCC(=O)O ... condition not met

is_below(Population Hoechst High Intensity Objects (%), 4%) for CCC(=O)OCC(=O)[C@@]1(OC(=O)CC)[C@@H](C)C[C@H]2[C@@H]3CCC4=CC(=O)C=C[C@]4(C)[C@@]3(Cl)[C@@H](O)C[C@@]21C [BECLOMETHASONE DIPROPIONATE] ?
condition met

Field: below-cutoff. Rule: recorded Population Hoechst High Intensity Objects (%) strictly less than 4%. Subject: `N[C@](CC1c2ccccc2Oc2ccccc21)(C(=O)O)[C@H]1C[C@@H]1C(=O)O`
condition met

Please check: Population Hoechst High Intensity Objects (%) for `Cc1cc(=O)n(C)c2cc(N3C(=O)CC[C@H](NS(=O)(=O)CC(C)C)[C@H]3c3ccc(Cl)cc3)ccc12` , strictly under 4% or not?
condition not met

====

test system: HEK-293T; assay: Multiplex assay against HEK293T; assay type: toxicity, cell-based; conditions: human, 24 h, 1 µM, compound concentration 1 uM, replicate 2
Metric: Population Hoechst High Intensity Objects (%)
Give bare numbers, in %.

Answered cases to consult:
1. COc1cc2nc(N3CCN(C(=O)COc4c(OC)cccc4C(C)C)CC3)nc(N)c2cc1OC.Cl.Cl ... 2
2. O=c1ccc2ccc(OCCCCN3CCN(c4cccc5sccc45)CC3)cc2[nH]1 [BREXPIPRAZOLE] ... 2
3. O=C(O)CCC/C=C\CC1C(O)CC(O)C1/C=C/C(O)COc1cccc(Cl)c1 (centres undefined) [CLOPROSTENOL] ... 5
4. COc1cc(Nc2ncc3c(n2)-c2ccc(Cl)cc2C(c2c(F)cccc2OC)=NC3)ccc1C(=O)O [ALISERTIB] ... 9
5. Cc1c(Cc2ccc3ccccc3n2)c2cc(F)ccc2n1CC(=O)O [TIMAPIPRANT] ... 5

The following molecules each have a reported value; give each one's Population Hoechst High Intensity Objects (%).
1. CCn1c(-c2nc3cc(C(=O)N4CCCC(N)C4)ccc3n2C)cc2ccccc21.Cl (centres undefined)
2. Cc1nn(C)c2nc(NNC(=O)Nc3cc(Cl)nc(Cl)c3)cc(C(C)C)c12
3. COc1cc(OC2CCN(C(C)=O)CC2)ccc1C(=O)N1CCC(N2C(=O)OCc3ccccc32)CC1
4. CSc1nc(NC2CCCC2)c([N+](=O)[O-])c(NC2CCCC2)n1 [GS-39783]

4
1
6
8

====

tested on: Fibroblast; experiment: Multiplex assay against human fibroblast; format: toxicity, cell-based; conditions: 12 h, 1 µM, compound concentration 1 uM, replicate 1
Non-standard residues stand in square brackets, D forms with d. Residues, ends and D or L forms follow the SMILES beside them.
Metric: Population Pyknosed Nuclei (%)
Enter the number, and then the unit.

Worked examples follow.
1) Cc1c(Cc2ccc3ccccc3n2)c2cc(F)ccc2n1CC(=O)O [TIMAPIPRANT] ... 19%
2) CC(C)C[C@@H]1NC(=O)[C@@H](C(C)C)NC(=O)[C@@H]2CCCN2C(=O)[C@@H](CC(=O)O)NC(=O)[C@@H](Cc2c[nH]c3ccccc23)NC1=O [BQ-123] (cyclo(L[dW][dD]P[dV])) ... 13%
3) COc1ccc2c(c1OCc1ccccc1)C[C@@H](C(=O)O)N(C(=O)C(c1ccccc1)c1ccccc1)C2 [OLODANRIGAN] ... 19%
4) CCc1nn2c(C)cc(C)nc2c1Cc1ccc(-c2nnc(C3CCNCC3)o2)cc1 ... 19%
5) Cl.Cl.OCCOCCN1CCN(C(c2ccccc2)c2ccc(Cl)cc2)CC1 (stereo not drawn) [HYDROXYZINE HYDROCHLORIDE] ... 13%
6) COc1cc(C(=O)N2CC[C@@H](O)[C@@H](N)C2)cc2nc(-c3cc4ccccc4n3CC3CC3)n(C)c12.Cl ... 12%

Give one value of Population Pyknosed Nuclei (%) per listed compound.
1. O=c1nc2[nH]c3ccccc3nc-2c(=O)[nH]1 [ALLOXAZINE]
2. Cc1ccc(OCC(O)C(C)NC(C)C)c2c1CCC2.Cl (stereo not drawn)

16%
20%

====

Provide the recorded Population Fragmented Nuclei (%) for the entries that follow.
system: HEK-293T; test: Multiplex assay against HEK293T; type: toxicity, cell-based; settings: human, 48 h, 10 µM, compound concentration 10 uM, replicate 1
One number for each entry, in %.

1. Nc1nc(CC(=O)Nc2ccc(CCNC[C@H](O)c3ccccc3)cc2)cs1 ... 12
2. COc1c(Nc2ccc(S(C)(=O)=O)nc2C)ncnc1OC1CCN(C(=O)OC(C)C)CC1 ... 15
3. O=C(Nc1cc(-c2ccccc2)nn1-c1ccccc1F)c1ccc([N+](=O)[O-])cc1 ... 12
4. CCCCCCNC(=O)Nc1ccc(S(=O)(=O)Nc2ccc(CCNC[C@H](O)COc3ccc(O)cc3)cc2)cc1 ... 15
5. CSc1nc(NC2CCCC2)c([N+](=O)[O-])c(NC2CCCC2)n1 ... 14

Look at each compound and report its Population Fragmented Nuclei (%).
1. COCCn1c(C)c(C)s/c1=N\C(=O)C1C(C)(C)C1(C)C
2. Cn1cc(C(=O)OCC2CCN(CCNS(C)(=O)=O)CC2)c2ccccc21
3. COc1cc(Nc2ncc3c(n2)-c2ccc(Cl)cc2C(c2c(F)cccc2OC)=NC3)ccc1C(=O)O
4. O=C(O)CCC/C=C\CC1C(O)CC(O)C1/C=C/C(O)COc1cccc(Cl)c1 (stereo not drawn)
5. CN1CCN(c2ccc(Nc3c4ccccc4nc4ccccc34)cc2)CC1.Cl.Cl.O
6. CN(C)C(=O)Cn1cc(-c2ccc(-c3nnc4ccccn34)cc2)cn1

[18, 16, 13, 16, 34, 18]

Below is a list of compounds. For each, state its recorded Population Fragmented Nuclei (%).
1. COc1cc2nc(N3CCN(C(=O)c4ccco4)CC3)nc(N)c2cc1OC.Cl [PRAZOSIN HYDROCHLORIDE]
2. Cc1c(Cc2ccc3ccccc3n2)c2cc(F)ccc2n1CC(=O)O
3. CCc1nn2c(C)cc(C)nc2c1Cc1ccc(-c2nnc(C3CCNCC3)o2)cc1
4. Cc1cc(NC(=O)NCCN2CCC(O)(Cc3ccccc3)CC2)c2ccccc2n1

[17, 10, 14, 15]

Record Population Fragmented Nuclei (%) for all entries; do not skip any.
1. Cc1sc2c(c1C)C(c1ccc(Cl)cc1)=N[C@H](CC(=O)OC(C)(C)C)c1nnc(C)n1-2
2. O=C(NCCNCC(O)COc1ccc(O)cc1)N1CCOCC1.O=C(NCCNCC(O)COc1ccc(O)cc1)N1CCOCC1.O=C(O)/C=C/C(=O)O (stereo not drawn) [XAMOTEROL FUMARATE]
3. CN1C[C@H](C(=O)N[C@]2(C)O[C@@]3(O)[C@@H]4CCCN4C(=O)[C@H](Cc4ccccc4)N3C2=O)C[C@@H]2c3cccc4[nH]cc(c34)C[C@H]21.CS(=O)(=O)O [DIHYDROERGOTAMINE MESYLATE]
4. COc1ccc2c(c1OCc1ccccc1)C[C@@H](C(=O)O)N(C(=O)C(c1ccccc1)c1ccccc1)C2
5. C[C@H](NC(=O)CNC(=O)c1cccc(Cl)c1)c1ccccc1
6. COC(c1ccccc1)(c1ccccc1)[C@H](Oc1nc(C)cc(C)n1)C(=O)O
7. Cc1cc(O)c(-c2ccc([C@@H](C)CN(C)C)cc2)c2c1[nH]c(=O)c1sccc12

9
15
15
12
15
14
15

Can you give me Population Fragmented Nuclei (%) for all of these, one by one?
1. Cc1ccc(OCC(O)C(C)NC(C)C)c2c1CCC2.Cl (stereo not drawn)
2. CCCCC[C@H](O)/C=C/[C@H]1[C@H](O)CC(=O)[C@@H]1CCCCCCC(=O)O
3. CCC(=O)OCC(=O)[C@@]1(OC(=O)CC)[C@@H](C)C[C@H]2[C@@H]3CCC4=CC(=O)C=C[C@]4(C)[C@@]3(Cl)[C@@H](O)C[C@@]21C [BECLOMETHASONE DIPROPIONATE]
4. CN1CCN2c3ccccc3Cc3ccccc3C2C1.Cl (stereo not drawn) [MIANSERIN HYDROCHLORIDE]
5. CC(C)(C)c1ccc(CSc2cnn(C(C)(C)C)c(=O)c2Cl)cc1

10
15
14
14
8
